These entries and their values trace back to patent US9403866B2.

# ASSAY OVERVIEW: Plasma levels and bioavailability in rats
# COND: male, Sprague Dawley, rat, in vivo, po, 10 mg/kg
Threshold rule: Bioavailability % F greater than or equal to 40% is True; below that, False.

COMPOUND	DISCRETE LABEL
CC(C)C(N)C(=O)OC1CCC23CC24CCC2(C)C(C5(C)CCC(C(C)(C)O)O5)C(O)CC2(C)C4CC(O)C3C1(C)C (centres unmarked)	False
CC(C)(O)[C@@H]1CC[C@](C)([C@H]2[C@@H](O)C[C@@]3(C)[C@@H]4C[C@H](O)[C@H]5C(C)(C)[C@@H](O)CC[C@@]56C[C@@]46CC[C@]23C)O1 [Compound 2, reference compound]	False
CC(C)C(N)C(=O)OC1CC2C3(C)CC(O)C(C4(C)CCC(C(C)(C)O)O4)C3(C)CCC23CC32CCC(O)C(C)(C)C12 (centres unmarked)	False
CC(C)C(N)C(=O)OC1CC2C3(C)CC(O)C(C4(C)CCC(C(C)(C)O)O4)C3(C)CCC23CC32CCC(OC(=O)C(N)C(C)C)C(C)(C)C12 (centres unmarked)	True

# bool: Bioavailability % F of CCC(C)C(N)C(=O)OC1CCC23CC24CCC2(C)C(C5(C)CCC(C(C)(C)O)O5)C(O)CC2(C)C4CC(O)C3C1(C)C (centres unmarked) >= 40% True
